Tested on: 616215-338-R-J1-PDC complex spheroid viability;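 further: spheroids exposed to agents for seven days before viability readout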
Experiment: Anticancer human tumor 616215-338-R-J1-PDC patient-derived colon adenocarcinoma cell line growth inhibition [RAS]
Details: curve of first compound; second compound 1 µM

{"compound": "CC(C)n1nc(-c2ccc3oc(N)nc3c2)c2c(N)ncnc21 + C=CC(=O)N1CCN(c2nc(OCC3CCCN3C)nc3c(F)c(-c4nc(N)cc(C)c4C(F)(F)F)c(Cl)cc23)C(C)C1", "unit_tag": "nM", "value_modifier": ">", "IC50": 100}
{"compound": "CC(Nc1ccc2c(c1)OCCn1cc(N3C(=O)OCC3C(F)F)nc1-2)C(N)=O (stereo unspecified) + C=CC(=O)N1CCN(c2nc(OCC3CCCN3C)nc3c(F)c(-c4nc(N)cc(C)c4C(F)(F)F)c(Cl)cc23)C(C)C1", "unit_tag": "nM", "value_modifier": ">", "IC50": 10000}
{"compound": "CC(=O)OC12COC1CC(O)C1(C)C(=O)C(O)C3=C(C)C(OC(=O)C(O)C(NC(=O)OC(C)(C)C)c4ccccc4)CC(O)(C(OC(=O)c4ccccc4)C21)C3(C)C (stereo unspecified) + C=CC(=O)N1CCN(c2nc(OCC3CCCN3C)nc3c(F)c(-c4nc(N)cc(C)c4C(F)(F)F)c(Cl)cc23)C(C)C1", "unit_tag": "nM", "value_modifier": "<", "IC50": 31.6}
{"compound": "CCC(CC)c1cc(NC2CCC(N)C2)n2nccc2n1 (stereo unspecified) + C=CC(=O)N1CCN(c2nc(OCC3CCCN3C)nc3c(F)c(-c4nc(N)cc(C)c4C(F)(F)F)c(Cl)cc23)C(C)C1", "unit_tag": "nM", "value_modifier": "=", "IC50": 1860}
{"compound": "CCC(CC)c1cc(NC2CCC(N)C2)n2nccc2n1 (stereo unspecified) + C#Cc1c(F)ccc2cc(O)cc(-c3ncc4c(N5CC6CCC(C5)N6)nc(OCC56CCCN5CC(F)C6)nc4c3F)c12", "unit_tag": "nM", "value_modifier": "=", "IC50": 1850}
{"compound": "CCc1c2c(nc3ccc(O)cc13)-c1cc3c(c(=O)n1C2)COC(=O)[C@]3(O)CC + C=CC(=O)N1CCN(c2nc(OCC3CCCN3C)nc3c(F)c(-c4nc(N)cc(C)c4C(F)(F)F)c(Cl)cc23)C(C)C1", "unit_tag": "nM", "value_modifier": "=", "IC50": 8.32}
